# testTarget: Acetylcholinesterase (Electrophorus electricus)
# measurementParameters: at 2 mg/mL
# Description: Inhibition of electric eel AChE at 2 mg/ml by Ellman's method
Decision: inhibition >= 20% yields True, all other cases yield False.

CC[C@@H](C)[C@@H](O)[C@H](C)C(=O)[C@H](C)/C=C(\C)C[C@H](C)[C@@H]1OC(=O)[C@H]1CC    False
COC1=C[C@@H]2[C@@H]3Cc4ccc(OC)c(O)c4[C@]2(CCN3C)CC1=O    False
N[C@@H](Cn1ccc(=O)c(O)c1)C(=O)O    False
N[C@@H](Cn1oc(=O)[nH]c1=O)C(=O)O    True

Prompt: Exam item: decide whether the reported inhibition for O=C1Cc2c([nH]c3ccc(Br)cc23)-c2ccccc2N1 is at least 20%.
Response: False

Prompt: Exam item: decide whether the reported inhibition for CC[C@@H](C(=O)[C@@H](C)[C@@H](O)[C@H](C)[C@@H]1O[C@@H]([C@@H](CC)C(=O)O)CC[C@@H]1C)[C@H]1O[C@]2(C=C[C@@H](O)[C@]3(CC[C@@](C)([C@H]4CC[C@](O)(CC)[C@H](C)O4)O3)O2)[C@H](C)C[C@@H]1C is at least 20%.
Response: False

Prompt: Exam item: decide whether the reported inhibition for O=c1oc2ccccc2c(O)c1Cc1c(O)c2ccccc2oc1=O is at least 20%.
Response: False

Prompt: Exam item: decide whether the reported inhibition for COc1ccc2cc3[n+](cc2c1OC)CCc1cc2c(cc1-3)OCO2 [BERBERINE CHLORIDE] is at least 20%.
Response: True

Prompt: Exam item: decide whether the reported inhibition for CN1[C@H]2CC(=O)C[C@@H]1C(O)C2 (some centres undefined) is at least 20%.
Response: False

====

# testTarget: Cholinesterase (Equus caballus) (UniProt P81908)
# Sequence (P81908 whole entry): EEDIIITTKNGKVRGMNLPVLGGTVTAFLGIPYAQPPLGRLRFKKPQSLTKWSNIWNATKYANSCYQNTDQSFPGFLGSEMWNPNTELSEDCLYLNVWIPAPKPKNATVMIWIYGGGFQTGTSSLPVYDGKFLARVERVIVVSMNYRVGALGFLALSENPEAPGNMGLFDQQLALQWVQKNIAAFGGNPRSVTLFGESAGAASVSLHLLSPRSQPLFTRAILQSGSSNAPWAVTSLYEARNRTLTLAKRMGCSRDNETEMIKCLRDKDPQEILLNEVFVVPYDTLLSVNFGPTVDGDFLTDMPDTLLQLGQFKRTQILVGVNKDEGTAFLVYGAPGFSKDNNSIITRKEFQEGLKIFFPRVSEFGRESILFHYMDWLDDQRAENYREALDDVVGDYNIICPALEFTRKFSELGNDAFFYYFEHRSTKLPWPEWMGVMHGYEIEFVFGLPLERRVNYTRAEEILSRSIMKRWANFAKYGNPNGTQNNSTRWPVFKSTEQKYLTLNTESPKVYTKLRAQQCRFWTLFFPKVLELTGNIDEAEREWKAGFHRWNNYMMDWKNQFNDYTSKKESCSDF
# measurementParameters: at 2 mg/mL
# Description: Inhibition of horse BChE at 2 mg/ml by Ellman's method
Collected inhibition values appear next to each entry.
Give your result in % as a bare value.

CC1(C)C2CCC1(C(=O)O)C(=O)C2 (stereo not given)    -2.51

Short answer for COc1ccc2c(c1OC)C(=O)O[C@H]2[C@@H]1c2cc3c(cc2CCN1C)OCO3 : inhibition was -1.4

====

# testTarget: Cholinesterase (Equus caballus) (UniProt P81908)
# measurementParameters: at 2 mg/mL
endpointName: inhibition (%)
Give your result in % as a bare value.

Please review the following examples before continuing.
COc1cc2c3cc1Oc1c(OC)c(OC)cc4c1[C@@H](Cc1ccc(O)c(c1)Oc1ccc(cc1)C[C@@H]3N(C)CC2)N(C)CC4    68.5
CN1C[C@H](CO)C[C@@H]2c3cccc4[nH]cc(c34)C[C@H]21    15.3
CC1=CC(=O)C2=C(C)CC[C@@H]3[C@H](OC(=O)[C@H]3C)[C@@H]12    0.28

Then there is this molecule:
Short answer for COc1cc(-c2oc3cc(O)cc(O)c3c(=O)c2OC2O[C@H](CO[C@@H]3O[C@@H](C)[C@H](O)[C@@H](O)[C@H]3O)[C@@H](O)[C@H](O)[C@H]2O)ccc1O (stereo partly drawn) : inhibition was 0.75

====

# testTarget: Acetylcholinesterase (Electrophorus electricus)
# measurementParameters: at 2 mg/mL
Decision: inhibition >= 10% yields criterion met, all other cases yield criterion not met.

Here are 10 compounds together with their reported answers.
O=C(/C=C/c1ccc(O)c(O)c1)O[C@@H]1C[C@](O)(C(=O)O)C[C@@H](O)[C@H]1O    criterion met
COc1c2c(nc3ccccc13)OC(C(C)(O)CO)C2 (stereo not drawn)    criterion met
CN1CCc2cc3c(cc2C(=O)Cc2ccc4c(c2C1)OCO4)OCO3    criterion met
O=c1cc(-c2ccccc2)oc2cc(O)cc(O)c12    criterion met
COc1cc(/C=C/c2ccccc2)oc(=O)c1    criterion not met
CC(C)[C@@H]1NC(=O)[C@H](C)OC(=O)[C@@H](C(C)C)NC(=O)[C@@H](C(C)C)OC(=O)[C@H](C(C)C)NC(=O)[C@H](C)OC(=O)[C@@H](C(C)C)NC(=O)[C@@H](C(C)C)OC(=O)[C@H](C(C)C)NC(=O)[C@H](C)OC(=O)[C@@H](C(C)C)NC(=O)[C@@H](C(C)C)OC1=O    criterion met
CCCCCCCCCCCCCC[C@@H](O)[C@@H](O)[C@@H](N)CO    criterion met
C=C1C[C@]23C[C@@]1(O)CC[C@H]2[C@@]12C=C[C@H](O)[C@@](C)(C(=O)O1)[C@H]2[C@@H]3C(=O)O    criterion not met
O=c1oc2c(O)c(O)cc3c(=O)oc4c(O)c(O)cc1c4c23    criterion not met
O=[N+]([O-])c1ncc[nH]1    criterion not met

Prompt: Exam item: decide whether the reported inhibition for O=C1/C(=C/c2ccc(O)c(O)c2)Oc2cc(O)ccc21 is at least 10%.
Response: criterion met

Prompt: Exam item: decide whether the reported inhibition for C/C=C1\CN2CC[C@]34C(=C(CC=O)[C@H]1C[C@H]23)Nc1ccccc14 is at least 10%.
Response: criterion met

Prompt: Exam item: decide whether the reported inhibition for Oc1cc(O)c2c(c1)O[C@H](c1ccc(O)c(O)c1)[C@H](O)C2 is at least 10%.
Response: criterion not met

Prompt: Exam item: decide whether the reported inhibition for COc1c(O)cc(O)c2c(=O)cc(-c3ccccc3)oc12 is at least 10%.
Response: criterion not met
